Biological target: HiBit-BRG1 fusion protein (Homo sapiens)
Construct: expressed in transfected cells
Sequence (P51532 whole entry, the tested form may be a part): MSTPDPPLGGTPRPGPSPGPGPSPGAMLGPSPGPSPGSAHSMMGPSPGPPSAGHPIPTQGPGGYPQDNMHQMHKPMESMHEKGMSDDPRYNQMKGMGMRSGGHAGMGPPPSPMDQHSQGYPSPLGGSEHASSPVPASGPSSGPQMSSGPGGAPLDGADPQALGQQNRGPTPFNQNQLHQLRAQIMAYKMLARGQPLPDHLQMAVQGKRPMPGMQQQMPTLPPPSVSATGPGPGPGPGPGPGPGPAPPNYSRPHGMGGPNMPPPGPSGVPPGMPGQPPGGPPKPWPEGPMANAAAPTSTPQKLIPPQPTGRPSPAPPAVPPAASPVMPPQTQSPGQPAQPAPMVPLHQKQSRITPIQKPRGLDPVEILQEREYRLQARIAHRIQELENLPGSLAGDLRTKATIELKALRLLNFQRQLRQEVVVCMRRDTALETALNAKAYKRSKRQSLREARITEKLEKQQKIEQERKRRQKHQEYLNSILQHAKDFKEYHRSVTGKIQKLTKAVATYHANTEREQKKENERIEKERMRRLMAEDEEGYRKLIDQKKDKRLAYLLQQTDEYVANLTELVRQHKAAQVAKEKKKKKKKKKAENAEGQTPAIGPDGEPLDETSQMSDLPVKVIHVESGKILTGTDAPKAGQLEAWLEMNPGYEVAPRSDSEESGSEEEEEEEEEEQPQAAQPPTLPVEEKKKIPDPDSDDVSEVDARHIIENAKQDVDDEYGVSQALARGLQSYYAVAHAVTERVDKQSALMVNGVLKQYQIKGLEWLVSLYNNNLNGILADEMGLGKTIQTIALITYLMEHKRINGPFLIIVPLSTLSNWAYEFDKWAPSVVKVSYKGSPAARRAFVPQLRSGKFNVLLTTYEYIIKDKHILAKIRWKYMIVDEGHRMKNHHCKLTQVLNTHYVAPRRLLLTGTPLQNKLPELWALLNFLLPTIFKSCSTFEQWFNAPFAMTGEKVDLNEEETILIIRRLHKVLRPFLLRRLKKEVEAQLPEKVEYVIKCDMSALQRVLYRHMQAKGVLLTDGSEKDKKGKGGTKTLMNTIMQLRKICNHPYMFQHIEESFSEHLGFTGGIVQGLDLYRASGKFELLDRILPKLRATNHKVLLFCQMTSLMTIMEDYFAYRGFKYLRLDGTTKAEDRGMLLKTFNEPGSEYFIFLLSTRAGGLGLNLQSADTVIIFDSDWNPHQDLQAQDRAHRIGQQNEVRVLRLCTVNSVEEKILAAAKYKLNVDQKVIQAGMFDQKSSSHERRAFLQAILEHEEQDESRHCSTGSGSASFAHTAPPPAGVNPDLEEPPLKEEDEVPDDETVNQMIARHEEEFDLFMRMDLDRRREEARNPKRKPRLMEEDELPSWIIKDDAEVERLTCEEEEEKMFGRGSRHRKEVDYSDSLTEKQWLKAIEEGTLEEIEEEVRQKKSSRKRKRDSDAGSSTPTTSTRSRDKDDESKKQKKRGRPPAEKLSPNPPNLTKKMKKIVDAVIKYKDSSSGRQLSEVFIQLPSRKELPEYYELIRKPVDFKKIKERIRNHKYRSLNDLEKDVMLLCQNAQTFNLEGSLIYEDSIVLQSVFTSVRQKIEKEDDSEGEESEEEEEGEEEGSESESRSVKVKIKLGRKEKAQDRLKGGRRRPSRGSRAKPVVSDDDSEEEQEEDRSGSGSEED
Assay: HiBiT-BRG1 cell-based degradation assay (Nano-Glo HiBiT Lytic Detection, 24 h)
Conditions: HeLa cell line expressing HiBit-BRG1 and LgBit, read-out: BRG1 HiBit Degradation Maximum (%)
Protocol: Procedure: A stable HeLa cell line expressing HiBiT-BRM was generated. On day 0, 5000 cells were seeded in 40 μL of media into each well of 384-well cell culture plates. […] The plates were shaken for 10 minutes at room temperature and the bioluminescence read using an EnVision plate reader (PerkinElmer). […] The degradation % was calculated using the following formula: % degradation=100%−100%×(LumSample−LumLC)/(LumHC−LumLC). […]
Measure: Dmax

Sample Cc1ncsc1-c1ccc([C@H](C)NC(=O)[C@@H]2C[C@@H](O)CN2C(=O)[C@@H](c2cc(N3CCN(Cc4cc5cc(-c6ccccc6O)nnc5[nH]4)CC3)no2)C(C)C)cc1 (racemic) [Compound 199] ; Dmax observed: < 50%
